target desc: human TLR7 (Homo sapiens (Human))
Sequence (Q9NYK1 27-1049): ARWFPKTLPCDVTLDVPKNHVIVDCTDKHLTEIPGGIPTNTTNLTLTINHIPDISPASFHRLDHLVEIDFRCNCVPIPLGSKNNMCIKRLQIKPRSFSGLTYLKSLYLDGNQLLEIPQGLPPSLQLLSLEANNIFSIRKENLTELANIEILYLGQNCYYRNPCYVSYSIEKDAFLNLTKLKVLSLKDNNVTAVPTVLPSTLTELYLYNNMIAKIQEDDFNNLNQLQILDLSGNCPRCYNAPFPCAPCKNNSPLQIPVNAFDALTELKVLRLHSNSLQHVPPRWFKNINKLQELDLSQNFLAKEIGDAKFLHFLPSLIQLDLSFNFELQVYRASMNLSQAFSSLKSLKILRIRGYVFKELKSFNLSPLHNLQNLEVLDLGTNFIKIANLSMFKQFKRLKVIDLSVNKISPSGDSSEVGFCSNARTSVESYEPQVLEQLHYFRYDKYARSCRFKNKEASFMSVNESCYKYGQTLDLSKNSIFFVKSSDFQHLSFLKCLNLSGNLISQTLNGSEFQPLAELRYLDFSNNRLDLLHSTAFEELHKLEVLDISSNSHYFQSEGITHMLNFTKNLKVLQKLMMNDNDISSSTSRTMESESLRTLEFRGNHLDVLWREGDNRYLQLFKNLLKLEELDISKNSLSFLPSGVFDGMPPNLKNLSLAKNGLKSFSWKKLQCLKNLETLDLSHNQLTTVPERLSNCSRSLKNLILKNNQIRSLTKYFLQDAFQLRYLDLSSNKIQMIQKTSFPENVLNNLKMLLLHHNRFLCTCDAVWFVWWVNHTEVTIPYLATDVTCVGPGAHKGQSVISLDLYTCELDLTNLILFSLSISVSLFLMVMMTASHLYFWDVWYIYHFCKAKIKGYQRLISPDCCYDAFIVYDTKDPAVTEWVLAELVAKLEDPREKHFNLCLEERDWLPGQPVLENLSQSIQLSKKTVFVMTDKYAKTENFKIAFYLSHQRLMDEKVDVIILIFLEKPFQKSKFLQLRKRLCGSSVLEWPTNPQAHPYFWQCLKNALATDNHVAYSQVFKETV
assay details: TLR7 inhibition reporter assay (HEK-Blue cells, SEAP reporter, gardiquimod stimulation)
Type: cell-based
experimental setup: HEK-Blue cells overexpressing human TLR7, gardiquimod 7.5 μM
Recorded measurements of IC50, one per entry
The response must be a number in nM with no trailing unit.

* CC(C)c1c(-c2ccnc(F)c2)[nH]c2ccc(C3CCN(C4CCN(C)CC4)CC3)cc12 | 25.8
* Cc1cc(-c2[nH]c3ccc(C4CCN(C(=O)CN(C)C)CC4)cc3c2C(C)C)cc(F)n1 | 5.5
* CCC(=O)N1CCC(c2ccc3[nH]c(-c4cc(C)nc(C)c4)c(C(C)C)c3c2)CC1 | 5.4
* Cc1cc(-c2[nH]c3ccc(C4CCN(CC(=O)N5CCC(F)(F)CC5)CC4)cc3c2C(C)C)cc(C)n1 | 9.8
* Cc1cc(-c2[nH]c3ccc(C4CCN(C(=O)c5ccc6n(c5=O)CCC6)CC4)cc3c2C(C)C)cc(C)n1 | 20
* Cc1cc(-c2[nH]c3ccc(C4CCNCC4)cc3c2C(C)C)c(N)c(C)n1 | 2.1
* CCc1c(-c2ccnc(C)c2)[nH]c2ccc(C3CCN(C(=O)C4CCNCC4)CC3)cc12 | 84.5
* Cc1cc(-c2[nH]c3ccc(C4CCN(C(=O)C(C)(C)C#N)CC4)cc3c2C(C)C)ccn1 | 80.9
* COC(=O)C1CC(N2CCC(c3ccc4[nH]c(-c5ccnc(C)c5)c(C(C)C)c4c3)CC2)CCN1 (stereo not drawn) | 20.9
* Cc1cc(-c2[nH]c3ccc(C4CCN(C(=O)C5CCNC5)CC4)cc3c2C(C)C)cc(C)n1 (single isomer, unassigned) [Example 182] | 1.3

Turning now to a further record.
Prompt line: Specify the recorded IC50 for Cc1cc(-c2[nH]c3ccc(C4CCN(C(=O)c5cccnc5)CC4)cc3c2C(C)C)cc(C)n1 [Example 112] , system: human TLR7 (Homo sapiens (Human)).
Response line: 6.2

* * *

target desc: UniProt Q9NYK1
assay details: TLR7 inhibition reporter assay (HEK-Blue cells, SEAP reporter, gardiquimod stimulation)
Assay type: cell-based
experimental setup: HEK-Blue cells, gardiquimod 7.5 μM
Recorded pIC50 for the following compounds
Convention used: pIC50 is expressed as -log10 of the molar concentration.

Example results:
- CCc1c(-c2ccncc2)[nH]c2ccc(C3CCN(Cc4cnc(Nc5ccccn5)s4)CC3)cc12: 6.08
- CCc1c(-c2ccnc(C)c2)[nH]c2ccc(C3CCN(CCC(F)(F)F)CC3)cc12: 6.33
- C=CC(C)(O)CN1CCC(c2ccc3[nH]c(-c4cc(C)nc(C)c4)c(C(C)C)c3c2)CC1 (stereo not shown): 8.64

Moving on to the next compound.
Prompt line: For Cc1cc(-c2[nH]c3ccc(C4CCN(Cc5cnc[nH]5)CC4)cc3c2C(C)C)ccn1 , write its pIC50.
Response line: 7.15

* * *

# reported log10 IC50; entries follow
target desc: human TLR7 (Homo sapiens (Human))
assay details: TLR7 inhibition reporter assay (HEK-Blue cells, SEAP reporter, gardiquimod stimulation)
Type: cell-based
experimental setup: HEK-Blue cells overexpressing human TLR7, gardiquimod 7.5 μM
Could you please treat all values as log10 of IC50 in nM?

Record excerpt, results attached:
• Cc1cc(-c2[nH]c3ccc(C4CCN(C(=O)CN(C)C)CC4)cc3c2C(C)C)c(C)cn1 [Example 585] = 1.03
• Cc1cc(-c2[nH]c3ccc(C4CCN(C(=O)CS(C)(=O)=O)CC4)cc3c2C(C)C)ccn1 [Example 608] = 1.71
• Cc1cc(-c2[nH]c3ccc(C4CCN(S(=O)(=O)c5cccnc5)CC4)cc3c2C(C)C)ccn1 [Example 543] = 2.08
• Cc1cc(-c2[nH]c3ccc(C4CCN(C5CCCOC5)CC4)cc3c2C(C)C)cc(C)n1 (centres unmarked) [Example 457] = 0.43
• COc1ncc(CN2CCC(c3ccc4[nH]c(-c5ccnc(C)c5F)c(C(C)C)c4c3)CC2)cn1 [Example 731] = 0.95
• CNCCN1CCC(c2ccc3[nH]c(-c4ccnc(C#N)c4)c(C)c3c2)CC1 [Example 755] = 3.42
• Cc1cc(-c2[nH]c3ccc(C4CC(C)(C)N(C)C(C)(C)C4)cc3c2C(C)C)cc(C)n1 [Example 496] = 3.86

Prompt line: Supply log10 IC50 value. Item: Cc1cc(-c2[nH]c3ccc(C4CCN(C(=O)CCN(C)CCO)CC4)cc3c2C(C)C)cc(C)n1 [Example 175]
Response line: 0.18

* * *

target desc: human TLR8 (Homo sapiens (Human), UniProt Q9NR97)
Sequence (Q9NR97 27-1041): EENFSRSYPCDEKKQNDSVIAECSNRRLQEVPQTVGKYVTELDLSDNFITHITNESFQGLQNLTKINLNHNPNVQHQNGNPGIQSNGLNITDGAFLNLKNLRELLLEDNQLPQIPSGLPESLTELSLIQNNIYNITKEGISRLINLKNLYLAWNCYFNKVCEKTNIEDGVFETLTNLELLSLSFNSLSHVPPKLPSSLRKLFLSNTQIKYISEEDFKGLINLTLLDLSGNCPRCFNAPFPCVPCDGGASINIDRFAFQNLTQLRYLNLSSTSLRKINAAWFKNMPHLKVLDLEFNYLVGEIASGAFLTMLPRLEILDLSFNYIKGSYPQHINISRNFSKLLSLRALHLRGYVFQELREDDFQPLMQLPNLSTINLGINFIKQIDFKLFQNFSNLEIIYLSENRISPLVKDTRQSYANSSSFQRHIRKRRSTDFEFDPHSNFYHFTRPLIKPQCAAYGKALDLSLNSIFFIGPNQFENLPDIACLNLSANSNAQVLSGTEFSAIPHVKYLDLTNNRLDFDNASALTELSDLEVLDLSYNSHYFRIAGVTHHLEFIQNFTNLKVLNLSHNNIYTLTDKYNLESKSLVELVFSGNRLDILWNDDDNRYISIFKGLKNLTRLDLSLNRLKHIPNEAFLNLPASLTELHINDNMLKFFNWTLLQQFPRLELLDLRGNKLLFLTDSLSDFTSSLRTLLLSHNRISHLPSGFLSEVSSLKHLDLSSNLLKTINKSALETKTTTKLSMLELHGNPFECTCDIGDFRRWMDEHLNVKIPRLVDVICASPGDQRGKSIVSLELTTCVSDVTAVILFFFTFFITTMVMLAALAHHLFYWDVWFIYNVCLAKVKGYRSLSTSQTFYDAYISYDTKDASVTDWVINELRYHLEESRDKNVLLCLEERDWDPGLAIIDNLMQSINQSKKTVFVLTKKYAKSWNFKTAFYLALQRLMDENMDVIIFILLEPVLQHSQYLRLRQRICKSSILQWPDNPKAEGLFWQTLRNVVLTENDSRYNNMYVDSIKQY
assay details: TLR8 inhibition reporter assay (HEK-Blue cells, SEAP reporter, R848 stimulation);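 also: compounds tested from 0.05 nM to 50 µM, 22 h at 37 °C, SEAP measured with HEK-Blue Detection, inhibition relative to agonist plus DMSO versus a known inhibitor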
experimental setup: read-out: TLR8 IC50, HEK-Blue cells overexpressing human TLR8, R848 15.9 μM
parameter measured: IC50 (nM)
Hi! Could you send only the number? It should be in nM, unit omitted.

Field: example entries. Status: answers known.
- Cc1cc(-c2[nH]c3ccc(C4CCNCC4)cc3c2C(C)C)ccn1 [Example 5]: 3.9
- Cc1cc(-c2[nH]c3ccc(C4CCN(C(=O)C5(C)COC5)CC4)cc3c2C(C)C)ccn1 [Example 596]: 102
- CNC(=O)C(=O)N1CCC(c2ccc3[nH]c(-c4cc(C)nc(C)c4)c(C(C)C)c3c2)CC1 [Example 205]: 76.3
- Cc1cc(-c2[nH]c3ccc(C4CCN(C(=O)CN5C[C@@H](F)C[C@H]5CO)CC4)cc3c2C(C)C)cc(C)n1 [Example 409]: 67.9
- Cc1cc(-c2[nH]c3ccc(C4CCN(C(=O)CN(CCO)Cc5ccccc5)CC4)cc3c2C(C)C)cc(C)n1 [Example 396]: 55.2

Prompt line: Input CNCCN1CCC(c2ccc3[nH]c(-c4ccnc(Cl)c4)c(C)c3c2)CC1 [Example 751] , output reported IC50.
Response line: 55.6

Prompt line: Provide one value: measured IC50 of Cc1cc(-c2[nH]c3ccc(C4CCN(C(=O)C5(C)COC5)CC4)cc3c2C(C)C)cc(C)n1 [Example 207]
Response line: 90.4

Prompt line: // fetch IC50 given entry Cc1cc(-c2[nH]c3ccc(C4CCN(CC(C)(C)C)CC4)cc3c2C(C)C)cc(C)n1 [Example 470]
Response line: 23.8

Prompt line: Give the measured IC50 for CCC(C)NCC(=O)N1CCC(c2ccc3[nH]c(-c4cc(C)nc(C)c4)c(C(C)C)c3c2)CC1 (stereo not shown) [Example 392]
Response line: 10.4

Prompt line: For Cc1cc(-c2[nH]c3ccc(C4CCN(C5CCCC5)CC4)cc3c2C(C)C)cc(C)n1 [Example 326] , write its IC50.
Response line: 29.2

Prompt line: Quote IC50 reported for CCN(C)C(=O)CN1CCC(c2ccc3[nH]c(-c4cc(C)nc(C)c4)c(C(C)C)c3c2)CC1 [Example 246] please.
Response line: 5.3

Prompt line: Answer with the recorded IC50 for the compound listed here: CNCC(=O)N1CCC(c2ccc3[nH]c(-c4cc(C)nc(C)c4F)c(C(C)C)c3c2)CC1 [Example 622]
Response line: 6.1

Prompt line: Read the entry Cc1cc(-c2[nH]c3ccc(C4CCN(S(C)(=O)=O)CC4)cc3c2C(C)C)ccn1 [Example 550] and write its reported IC50.
Response line: 162

Prompt line: Identify measured IC50 corresponding to Cc1cc(-c2[nH]c3ccc(C4CCNCC4)cc3c2CC(F)F)cc(C)n1 [Example 492]
Response line: 54.1

Prompt line: Return IC50 for the following compound: Cc1nc(CN2CCC(c3ccc4[nH]c(-c5ccnc(C6CC6)c5)c(C(C)C)c4c3)CC2)c[nH]1 [Example 484]
Response line: 96.3

* * *

Let's look at some compounds and their measured pIC50.
target desc: human TLR8 (Homo sapiens (Human))
assay details: TLR8 inhibition reporter assay (HEK-Blue cells, SEAP reporter, R848 stimulation)
experimental setup: read-out: TLR8 IC50, HEK-Blue cells overexpressing human TLR8, R848 15.9 μM
// pIC50: -log10(molar conc.)

Prompt line: Report pIC50, nothing else, for this compound: Cc1cc(-c2[nH]c3ccc(C4CCN(C(=O)CN(C)[C@@H]5CCOC5)CC4)cc3c2C(C)C)cc(C)n1
Response line: 7.21

Prompt line: Give recorded pIC50. CCc1c(-c2ccnc(-n3ccnc3)c2)[nH]c2ccc(C3CCNCC3)cc12
Response line: 8.05

Prompt line: Write down pIC50 measured for item CCC(=O)N1CCC(c2ccc3[nH]c(-c4ccnc(C)c4)c(C(C)C)c3c2)CC1
Response line: 6.64

Prompt line: Consider the compound Cc1cc(-c2[nH]c3ccc(C4CCN(CC(=O)N(C)C)CC4)cc3c2C(C)C)ccn1 and give its recorded pIC50.
Response line: 7.93

Prompt line: Identify the reported pIC50 for the following entry. CCN(CC)C(=O)CN1CCC(c2ccc3[nH]c(-c4cc(C)nc(C)c4)c(C(C)C)c3c2)CC1
Response line: 7.55

Prompt line: Annotate the compound Cc1cc(-c2[nH]c3ccc(C4CCNCC4)cc3c2C(C)C)c(Cl)c(C)n1 with its measured pIC50.
Response line: 8.72

Prompt line: Tell me measured pIC50 for CCc1c(-c2ccnc(C#N)c2)[nH]c2ccc(C3CCNCC3)cc12 please.
Response line: 7.21

Prompt line: Kindly indicate its recorded pIC50. Item: CCc1c(-c2ccnc(C)c2)[nH]c2ccc(C3CCN(C(=O)C4(C)CCNCC4)CC3)cc12
Response line: 7.27
